The reported numbers originate from ChEMBL document CHEMBL1201862.

- System: SF-295
- Procedure summary: NCI tumour cell line growth inhibition, 48 h
Active and inactive are the calls of the source. Cut-off read from the data, not from the text of the source: active = GI50 up to about 1.1 µM and inactive = higher.
Possible outcomes: active, inactive

Compound | Study system | Assigned label
O=C1c2c(O)cc(O)cc2OC(c2ccc(O)cc2O)C1O (configuration not stated) | SF-295 | inactive
O=c1c2ccccc2c2ccccc2c(=O)n1Cc1ccc2c(c1)OCO2 | SF-295 | inactive
N#Cc1ccc(Oc2nc3ccccc3nc2-c2ccccc2)cc1 | SF-295 | inactive
NC1=C(O)c2cccc3cccc(c23)C1=O | SF-295 | inactive
COc1ccc2c(c1)C(=O)C1CC(=O)CCC21 (configuration not stated) | SF-295 | inactive
N#CC1CC2(C1)OCCS2 (configuration not stated) | SF-295 | inactive
O=C(O)c1c([N+](=O)[O-])cc(C(F)(F)F)cc1[N+](=O)[O-] | SF-295 | inactive
CC1OC(OC2C(Oc3cc(O)c4c(c3)O[C@H](c3ccc(O)cc3)CC4=O)OC(CO)C(O)C2O)C(O)C(O)C1O (some centres not stated) | SF-295 | inactive
CNC(Cc1ccccc1)c1cccc(OC)c1O (configuration not stated) | SF-295 | inactive
CCOC(=O)c1cn(CC)c2ccc3c(c2c1=O)S(=O)(=O)C=C3 | SF-295 | inactive
CCn1c(O)c(C(=O)NC(C)c2ccc([N+](=O)[O-])cc2)c(=O)n(CC)c1=S (configuration not stated) | SF-295 | active
Cc1cc2c(cc1C)[n+]([O-])c(C(=O)C/C(=N/NC(=S)NN)C(=O)Nc1cccc(C(F)(F)F)c1)c[n+]2[O-] | SF-295 | inactive
Cc1nc2cc3ccccc3cc2[nH]c1=O | SF-295 | inactive
COc1cc(C2c3cc4c(cc3[C@@H](Nc3cccc(CO)c3)C3COC(=O)[C@H]23)OCO4)cc(OC)c1O (some centres not stated) | SF-295 | active
O=C(c1ccsc1)c1cc2c(s1)C(=O)c1ccsc1C2=O | SF-295 | active
C=CCNC(=O)N(CCC)CCCC(NC(C)=O)C(=O)NCc1ccccc1 (configuration not stated) | SF-295 | inactive
CC(=O)N1[C@H](C(=O)O)CS[C@H]1c1ccc(F)cc1 | SF-295 | inactive
O=C(O/N=c1/ccc(=O)/c(=N\OC(=O)c2ccccc2)c1=O)c1ccccc1 | SF-295 | inactive
C=C(CCC/C(C)=C/C=C/[C@@H](C)CCCc1ccoc1)C[C@@H]1OC(=O)[C@H](C)[C@@H]1O | SF-295 | inactive
COc1cc(C=O)c(-c2cc3c(cc2C=O)OCO3)c(OC)c1OC | SF-295 | inactive
COc1ccc(C2CC(c3ccccc3)=Nc3c(-c4ccccc4)nnn32)cc1 (configuration not stated) | SF-295 | inactive
CCN1CCCC(C#N)(c2ccccc2)CC1 (configuration not stated) | SF-295 | inactive
Cn1c(=O)c(Cl)c(N=[N+]=[N-])c2ccccc21 | SF-295 | inactive
C=CCOC(=O)[C@@H]1C[C@@H](OC(C)(C)C)CN1C(=O)[C@@H]1[C@H]2OC(C)(C)O[C@H]2CN1C(=O)OCC1c2ccccc2-c2ccccc21 | SF-295 | inactive
CC(C)C1=C(O)C(=O)C2=C(C1=O)C(OC=O)C(O)C1C(C)(C)CCCC21C (configuration not stated) | SF-295 | inactive
C(=N\c1nc2cc3sc(/N=C/c4cccs4)nc3cc2s1)/c1cccs1 | SF-295 | inactive
O=C(Cc1ccccc1)N/N=C(/c1nc2ccc([N+](=O)[O-])cc2nc1O)C(O)c1ccccc1Cl (configuration not stated) | SF-295 | inactive
COc1ccc(/C(C#N)=C(/N)SCc2ccccc2Cl)cc1 | SF-295 | inactive
Oc1[nH]c(NCc2ccc(Cl)cc2)nc2ncnc1-2 | SF-295 | inactive
O=[N+]([O-])c1cc(Cl)cc2cc(Br)cnc12 | SF-295 | inactive
CC1(Br)S(=O)(=O)OCCOS1(=O)=O | SF-295 | inactive
C=C1CC(CNc2cc(Cl)nc(N)n2)C1 | SF-295 | inactive
Nc1ccc(SC23CC4CC(CC(C4)C2)C3)cc1 | SF-295 | inactive
c1ccc2c(c1)SC1=Nc3sc4ccccc4[n+]3CN12 | SF-295 | inactive
CC1=NN(c2ccc(S(=O)(=O)O)cc2)C2(C1)C(Cl)C(=O)N2c1nc2ccccc2s1 (configuration not stated) | SF-295 | inactive
CCCCCCCc1cscc1-c1cscc1Br | SF-295 | inactive
O=C1C=C(OCCCl)C(=O)c2c(O)ccc(O)c21 | SF-295 | inactive
